Molecular target: acetylcholine esterase (Homo sapiens, UniProt P22303)
Sequence (P22303 32-614): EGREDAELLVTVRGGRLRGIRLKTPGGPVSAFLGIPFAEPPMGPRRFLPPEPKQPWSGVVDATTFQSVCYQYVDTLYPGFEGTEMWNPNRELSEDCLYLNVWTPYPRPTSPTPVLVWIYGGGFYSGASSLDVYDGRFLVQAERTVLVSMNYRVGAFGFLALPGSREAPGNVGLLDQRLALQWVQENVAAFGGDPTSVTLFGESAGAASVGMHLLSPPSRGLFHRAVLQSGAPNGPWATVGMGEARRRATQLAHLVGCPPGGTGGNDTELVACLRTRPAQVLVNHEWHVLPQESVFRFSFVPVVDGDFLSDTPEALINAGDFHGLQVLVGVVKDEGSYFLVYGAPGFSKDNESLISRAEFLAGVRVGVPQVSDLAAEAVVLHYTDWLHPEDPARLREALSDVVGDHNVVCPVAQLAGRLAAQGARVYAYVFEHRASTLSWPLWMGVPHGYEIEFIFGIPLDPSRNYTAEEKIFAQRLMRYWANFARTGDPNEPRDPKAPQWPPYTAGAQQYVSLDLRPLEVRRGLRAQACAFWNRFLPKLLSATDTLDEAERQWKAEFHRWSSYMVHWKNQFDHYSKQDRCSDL
Assay: biochemical
Settings: read-out: IC 50 for acetylcholine esterase inhibition
pIC50: −log10 of the molar value. Where a name gives a salt, the structure may show the parent alone.
Each item that follows carries a reported pIC50.
PROPERTY_NAME: pIC50

INSERT INTO assay_data (molecule, value_observed) VALUES
  ('CN(C)C(=O)Oc1cccc2c1CC[C@H]1[C@@H]2CCN1CCCCN1Cc2ccccc2C1=O (racemic)', 8.07),
  ('CN(C)C(=O)Oc1cccc2c1CC[C@H]1[C@@H]2CCN1CCCCNC(=O)c1ccccc1 (racemic)', 7.80),
  ('CN(C)C(=O)Oc1cccc2c1CC[C@H]1[C@@H]2CCN1CCN1CCCCC1 (racemic)', 7.51),
  ('CCCN1CC[C@@H]2c3cccc(OC(=O)N(C)C)c3CC[C@@H]21 (racemic)', 7.40),
  ('CN(C)C(=O)Oc1cccc2c1CC[C@H]1[C@@H]2CCN1C1CCCC1 (racemic)', 7.02),
  ('CCCNC(=O)Oc1cccc2c1CC[C@H]1[C@@H]2CCN1CCC1CCCCC1 (single isomer, unassigned)', 8.59),
  ('CN(C)C(=O)Oc1cccc2c1CC[C@H]1[C@@H]2CCN1CCCCCN1Cc2ccccc2C1=O (racemic)', 8.35),
  ('CN(C)C(=O)Oc1cccc2c1CC[C@@H]1[C@H]2CCN1CCCCCCNC(=O)c1ccccc1 (relative stereo)', 7.96),
  ('CCCN1CC[C@@H]2c3c(cccc3OC(=O)N(C)C)CC[C@@H]21 (racemic)', 6.46),
  ('CN(C)C(=O)Oc1cccc2c1CC[C@H]1[C@@H]2CCN1CCCCC1CCCCC1 (racemic)', 7.46),
  ('CN(C)C(=O)Oc1cccc2c1CC[C@@H]1[C@H]2CCN1CCCCN (relative stereo)', 6.57),
  ('CCNC(=O)Oc1cccc2c1CC[C@H]1[C@@H]2CCN1CCC1CCCCC1 (single isomer, unassigned)', 5.61),
  ('CN(C)C(=O)Oc1cccc2c1CC[C@@H]1[C@H]2CCN1Cc1ccccc1 (relative stereo)', 7.31),
  ('CN(C)C(=O)Oc1cccc2c1CC[C@H]1[C@@H]2CCN1CCCCCNC(=O)c1ccc(S(C)(=O)=O)cc1 (racemic)', 8.29),
  ('CN(C)C(=O)Oc1cccc2c1CC[C@H]1[C@@H]2CCN1CCC1CCCCC1 (single isomer, unassigned) [B, hydrochloride]', 7.52),
  ('COc1ccc(C(=O)CCCCCN2CC[C@@H]3c4cccc(OC(=O)N(C)C)c4CC[C@@H]32)cc1OC (racemic)', 8.92),
  ('CN(C)C(=O)Oc1cccc2c1CC[C@H]1[C@@H]2CCN1CCCN1CCOCC1 (racemic)', 7.20),
  ('COc1ccc(C(=O)CCCCN2CC[C@@H]3c4cccc(OC(=O)N(C)C)c4CC[C@@H]32)cc1OC (racemic)', 8.85),
  ('CN(C)C(=O)Oc1cccc2c1CC[C@@H]1[C@H]2CCN1CCCCCCNC(=O)c1ccc(S(C)(=O)=O)cc1 (relative stereo)', 8.25);
